System: HL-60(TB) leukemia
Test: NCI tumour cell line growth inhibition, 384-well format; in the data active = GI50 below about 0.43 µM; inactive = the rest
Response enum: Yes for active, No for inactive

# example entries with known answers
> print(dat)
                                   compound         test.target  label.value
1  N#CCCNc1nonc1-c1nc2ccccc2n1CC(=O)c1ccc(N)cc1  HL-60(TB) leukemia          Yes
2  O=P1(NCCCl)OCCCN1CCCl (centres undefined)  HL-60(TB) leukemia           No
3  COc1cccc2c1nc(C(F)F)n2-c1nc(-c2ccc(NS(=O)(=O)CCN(C)C)cc2)nc(N2CCOCC2)n1  HL-60(TB) leukemia          Yes

# next compound below
What classification did Cn1ncnc1[C@@H]1c2n[nH]c(=O)c3cc(F)cc(c23)N[C@H]1c1ccc(F)cc1 end up with in this test?
No
